# target.or.test.system: human CD73 (Homo sapiens, UniProt P21589)
# Sequence (P21589 27-549): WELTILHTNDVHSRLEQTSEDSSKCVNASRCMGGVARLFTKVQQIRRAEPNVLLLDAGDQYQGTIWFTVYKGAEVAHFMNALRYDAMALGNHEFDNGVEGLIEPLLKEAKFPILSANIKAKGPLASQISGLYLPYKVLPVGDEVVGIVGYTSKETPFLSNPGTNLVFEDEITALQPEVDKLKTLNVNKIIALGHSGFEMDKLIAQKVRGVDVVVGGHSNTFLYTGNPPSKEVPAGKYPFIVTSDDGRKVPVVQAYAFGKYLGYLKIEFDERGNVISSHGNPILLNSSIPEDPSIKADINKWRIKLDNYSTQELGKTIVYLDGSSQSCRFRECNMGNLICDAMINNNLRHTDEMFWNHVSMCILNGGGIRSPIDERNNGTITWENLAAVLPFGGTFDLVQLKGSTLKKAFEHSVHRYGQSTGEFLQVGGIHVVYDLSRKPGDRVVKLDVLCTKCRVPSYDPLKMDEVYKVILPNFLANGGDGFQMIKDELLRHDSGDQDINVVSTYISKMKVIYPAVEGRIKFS
# assay.method.text: Inhibition of Ecto-5′-nucleotidase (CD73) activity in CHO-CD73 cells, phosphate release from AMP
# condition.set: CHO-K1 cells stably transfected with human CD73; 25 μM AMP; 50 minutes, 37° C.; read-out: Potency: CD73 IC50
measured.quantity: IC50

[[record]]
compound = "CC(c1ccc(C#N)cc1F)n1nccc1-c1cc(Cl)c2nnn(-c3ccc4[nH]c(=O)[nH]c4c3)c2c1 (stereo not drawn)"
measured_quantity = "IC50"
value = "100 to 1000 nM"


Param readout = IC50; param system = human CD73 (Homo sapiens, UniProt P21589); param query = FC(F)(F)c1ccc(Cn2nccc2-c2cc(Cl)c3nnn(-c4ccc5cn[nH]c5c4)c3c2)nc1 ; response: value
100 to 1000 nM

* * *

The following molecules are shown together with reported IC50 values.
# target.or.test.system: human CD73 (Homo sapiens, UniProt P21589)
# assay.method.text: Inhibition of Ecto-5′-nucleotidase (CD73) activity in CHO-CD73 cells, phosphate release from AMP
# condition.set: CHO-K1 cells stably transfected with human CD73; 25 μM AMP; 50 minutes, 37° C.; read-out: Potency: CD73 IC50

Here are 5 molecules together with their reported answers.
[[record]]
molecule = "COCc1ccc(Cn2nccc2-c2cc(F)c3nnn(-c4ccc5[nH]c(=O)[nH]c5c4)c3c2)cc1"
value = "> 1000 nM"

[[record]]
molecule = "Cc1ccc(F)c(-n2nccc2-c2cc3c(cn2)nnn3-c2ccc3cn[nH]c3c2)c1"
value = "> 1000 nM"

[[record]]
molecule = "N#Cc1ccc(Cn2nccc2-c2cc(F)c3nnn(-c4ccc5[nH]c(=O)[nH]c5c4)c3c2)c(CO)c1"
value = "< 100 nM"

[[record]]
molecule = "N#Cc1ccc(Cn2nccc2-c2cc(F)c3nnn(-c4ccc5c(CNS(N)(=O)=O)n[nH]c5c4)c3c2)cc1"
value = "> 1000 nM"

[[record]]
molecule = "CC(c1ccc(C#N)cc1)n1nccc1-c1cc2c(cc1F)nnn2-c1ccc2cn[nH]c2c1 (stereo not shown)"
value = "100 to 1000 nM"


Using the record for O=c1[nH]c2ccc(-n3nnc4c(F)cc(-c5ccnn5Cc5cccc(Cl)c5Cl)cc43)cc2[nH]1 , report its IC50.
100 to 1000 nM

Field entry: Cc1ccc(C(C)n2nccc2-c2cc(F)c3nnn(-c4ccc5cn[nH]c5c4)c3c2)nc1 (stereo not shown)
100 to 1000 nM

* * *

# target.or.test.system: human CD73 (Homo sapiens, UniProt P21589)
# assay.method.text: Inhibition of Ecto-5′-nucleotidase (CD73) activity in CHO-CD73 cells, phosphate release from AMP
# Assay type: cell-based
# condition.set: CHO-K1 cells stably transfected with human CD73; 25 μM AMP; 50 minutes, 37° C.; read-out: Potency: CD73 IC50
IC50 listing for selected molecules.

I would be grateful if you could share the reported IC50 for O=c1[nH]c2ccc(-n3nnc4cnc(-c5ccnn5-c5cccc(F)c5)cc43)cc2[nH]1 .
> 1000 nM

Then N#Cc1ccc(Cn2nccc2-c2cc(F)c3nnn(-c4ccc5nc[nH]c5c4)c3c2)cc1 ?
> 1000 nM

Nc1cc(-n2nnc3c(F)cc(-c4ccnn4Cc4ccc(Cl)cn4)cc32)ccc1O , same question.
> 1000 nM

Same thing, different molecule: Cc1ccc(C(C)n2nccc2-c2cc(Cl)c3nnn(-c4ccc5cn[nH]c5c4)c3c2)nc1 (centres unmarked)
100 to 1000 nM
